These entries and their values trace back to ChEMBL document CHEMBL3399974.

Subject Of Test: Metabotropic glutamate receptor 5 (Rattus norvegicus, UniProt P31424)
Sequence (P31424 whole entry): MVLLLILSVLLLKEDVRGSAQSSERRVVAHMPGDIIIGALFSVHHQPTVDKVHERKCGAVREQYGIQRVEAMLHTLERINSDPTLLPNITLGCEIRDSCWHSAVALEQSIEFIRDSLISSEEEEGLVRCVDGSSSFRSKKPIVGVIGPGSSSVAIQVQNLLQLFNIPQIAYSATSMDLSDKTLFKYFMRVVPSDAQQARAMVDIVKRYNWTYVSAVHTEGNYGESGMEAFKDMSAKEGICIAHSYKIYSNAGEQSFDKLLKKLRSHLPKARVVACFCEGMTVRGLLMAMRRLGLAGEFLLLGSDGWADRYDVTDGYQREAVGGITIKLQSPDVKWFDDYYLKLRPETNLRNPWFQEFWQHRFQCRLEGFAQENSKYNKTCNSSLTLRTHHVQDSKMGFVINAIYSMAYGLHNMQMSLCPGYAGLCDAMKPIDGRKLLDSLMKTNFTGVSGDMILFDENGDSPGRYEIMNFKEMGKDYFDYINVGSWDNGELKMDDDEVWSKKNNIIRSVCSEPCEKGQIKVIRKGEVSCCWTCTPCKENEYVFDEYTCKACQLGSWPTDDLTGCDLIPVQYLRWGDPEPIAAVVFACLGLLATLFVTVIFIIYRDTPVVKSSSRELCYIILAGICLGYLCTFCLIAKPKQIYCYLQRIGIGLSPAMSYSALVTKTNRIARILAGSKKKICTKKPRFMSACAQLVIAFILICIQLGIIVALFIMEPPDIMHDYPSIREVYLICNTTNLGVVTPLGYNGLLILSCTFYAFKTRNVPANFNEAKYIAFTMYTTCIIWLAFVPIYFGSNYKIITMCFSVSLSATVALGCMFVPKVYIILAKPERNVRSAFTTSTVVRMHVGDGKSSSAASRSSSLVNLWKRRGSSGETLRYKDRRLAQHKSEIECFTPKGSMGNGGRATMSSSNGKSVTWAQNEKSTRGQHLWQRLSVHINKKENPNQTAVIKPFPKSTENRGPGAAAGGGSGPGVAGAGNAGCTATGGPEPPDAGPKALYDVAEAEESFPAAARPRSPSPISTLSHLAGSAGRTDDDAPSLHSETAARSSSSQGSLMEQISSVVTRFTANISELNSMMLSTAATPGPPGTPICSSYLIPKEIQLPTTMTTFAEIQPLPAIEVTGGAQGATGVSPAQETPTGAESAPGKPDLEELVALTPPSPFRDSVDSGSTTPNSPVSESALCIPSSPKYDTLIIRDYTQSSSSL
Measurement Protocol: Positive allosteric modulation at rat mGluR5 expressed in HEK293 cells by calcium mobilization assay
Catalogue of compounds with associated EC50
Give the value, in units of nM, as a plain number.

Known EC50 results, listed for orientation:
{"columns": ["Structure Smiles", "Unit Spec", "EC50"],
 "data": [
  ["O=c1n(Cc2ccccc2)ccc2nc(COc3ccccc3)cn12", "nM", 1590],
  ["O=c1n(-c2ccc(F)cc2)ccc2nc(COc3cccc(F)c3)cn12", "nM", 230],
  ["O=c1n(-c2ccc(F)c(F)c2)ccc2nc(COc3ccccc3)cn12", "nM", 230],
  ["CN(C)c1cccc(-n2ccc3nc(COc4ccccc4)cn3c2=O)n1", "nM", 284],
  ["O=C1N(c2ccc(F)cn2)CCc2nc(COc3ccccc3)cn21", "nM", 359]
]}

Identify measured EC50 corresponding to "Cc1cc(N2CCc3nc(COc4ccccc4)cn3C2=O)ccc1F"
130

For the compound "Cc1ccc(N2CCc3nc(COc4ccccc4)cn3C2=O)nc1" , give its reported EC50.
485

Entry "O=C1N(c2ccc(F)cc2)CCc2nc(COc3cccc(F)c3)cn21" needs its EC50 filled in; supply it.
69

Supply reported EC50 belonging to this compound: "O=c1n(-c2ccc(F)cc2)ccc2nc(COc3ccc(F)cc3)cn12"
375
